These data points were gathered from patent US20160137639A1.

TGT: mouse RORγ (Mus musculus, UniProt P51450)
Construct: mouse, NM_011281.2 and from Ile251 to Lys516; expressed in transfected cells; host or cells: CHO cells (transient co-transfection with pG5-Luc reporter)
Sequence (P51450 251-516): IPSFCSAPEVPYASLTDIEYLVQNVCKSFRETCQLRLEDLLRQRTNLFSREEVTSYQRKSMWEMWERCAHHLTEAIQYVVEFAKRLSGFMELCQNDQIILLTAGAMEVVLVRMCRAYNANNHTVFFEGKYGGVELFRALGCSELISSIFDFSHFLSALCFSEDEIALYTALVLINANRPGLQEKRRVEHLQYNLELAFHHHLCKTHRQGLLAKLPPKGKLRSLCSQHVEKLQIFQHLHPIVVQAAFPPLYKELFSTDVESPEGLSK
ASSAY EXPLANATION: Luciferase reporter gene assay of inhibitory effect against RORγ transcriptional activity (GAL4-mRORγ plasmid in CHO cells)
Assay type: cell-based
PROTOCOL CONDITIONS: read-out: LUC EC50 (μM) mRORg
READOUT LABEL: EC50

> print(dat)
                                   compound  measured.result
1  CC1(Cc2cc(-c3onc([C@@H](CCC(=O)O)CC(=O)Nc4ccc(Cl)cc4F)c3C3CC3)no2)CC1           < 3 µM
2  Cc1c(Br)cccc1NC(=O)CCc1nnc(CCC(C)C)n1C1CC1           < 3 µM
3    Cc1ccc(NC(=O)CCc2nnc(CO)n2C2CC2)c(C)c1           > 3 µM

Suppose we examine the compound `Cc1ccc(NC(=O)C[C@H](CCC(=O)O)c2noc(-c3cc(C(F)(F)C4(C)CC4)on3)c2C2CC2)c(Cl)c1` ; what EC50 value has been reported?
< 3 µM

* * *

TGT: mouse RORγ (Mus musculus)
Construct: mouse, NM_011281.2 and from Ile251 to Lys516; expressed in transfected cells; host or cells: CHO cells (transient co-transfection with pG5-Luc reporter)
ASSAY EXPLANATION: Luciferase reporter gene assay of inhibitory effect against RORγ transcriptional activity (GAL4-mRORγ plasmid in CHO cells)
Format: cell-based
PROTOCOL CONDITIONS: read-out: LUC EC50 (μM) mRORg
READOUT LABEL: EC50

Some molecules with known EC50 results, for comparison:
> print(dat)
                            molecule.smiles  measured.result
1  Cc1ccc(NC(=O)CCc2nnc([C@H]3C[C@@H](CC(C)(C)C)C3)n2C2CC2)c(C)c1           < 3 µM
2  CC(C)(C)Cc1cc(-c2onc([C@@H](CCC(=O)O)CC(=O)Nc3ccc(Cl)cc3F)c2C2CC2)no1           < 3 µM

Now for a further molecule.
Suppose we examine the molecule `Cc1ccc(NC(=O)C[C@H](CCC(=O)O)c2noc(-c3cc(CC(C)C)[nH]n3)c2C2CC2)c(F)c1` ; what EC50 value has been reported?
> 3 µM

* * *

TGT: human RORγ (Homo sapiens, UniProt P51449)
Construct: human, NM_005060.3 and from Ser253 to Lys518; expressed in transfected cells; host or cells: CHO cells (transient co-transfection with pG5-Luc reporter)
Sequence (P51449 253-518): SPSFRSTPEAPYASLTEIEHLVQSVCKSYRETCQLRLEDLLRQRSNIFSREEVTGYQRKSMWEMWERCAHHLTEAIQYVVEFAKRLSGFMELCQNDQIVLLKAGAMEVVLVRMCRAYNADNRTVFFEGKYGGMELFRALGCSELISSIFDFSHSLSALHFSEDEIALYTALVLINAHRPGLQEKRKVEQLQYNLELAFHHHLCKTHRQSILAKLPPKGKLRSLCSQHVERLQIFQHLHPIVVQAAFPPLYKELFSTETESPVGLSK
ASSAY EXPLANATION: Luciferase reporter gene assay of inhibitory effect against RORγ transcriptional activity (GAL4-hRORγ plasmid in CHO cells)
Type: cell-based
PROTOCOL CONDITIONS: read-out: LUC EC50 hRORg
READOUT LABEL: EC50

Some compounds with known EC50 results, for comparison:
> print(dat)
                                   compound                                       tgt  measured.result
1  Cc1c(F)ccc(NC(=O)C[C@H](OCC(F)(F)F)c2nnc(-c3cc(CC(C)C)on3)n2C2CC2)c1C  human RORγ (Homo sapiens, UniProt P51449)           < 3 µM
2  Cc1ccc(NC(=O)CC(CCO)c2noc(C3CC(CC(C)C)C3)c2C2CC2)c(C)c1 (stereo not shown)  human RORγ (Homo sapiens, UniProt P51449)           < 3 µM

Suppose we examine the compound `CC(C)(C)C[C@H]1C[C@@H](c2noc([C@@H](CCC(=O)O)CC(=O)Nc3ccc(Cl)cc3Cl)c2C2CC2)C1` ; what EC50 value has been reported?
< 3 µM

Suppose we examine the compound `Cc1ccc(NC(=O)[C@@H](CCC(=O)O)Cc2noc([C@H]3C[C@@H](CC(C)(C)C)C3)c2C2CC2)c(Cl)c1` ; what EC50 value has been reported?
< 3 µM

Suppose we examine the compound `Cc1ccc(NC(=O)C[C@H](OCC(C)C)c2nnc([C@H]3C[C@@H](CC(C)C)C3)n2C2CC2)c(C)c1` ; what EC50 value has been reported?
< 3 µM

Suppose we examine the compound `Cc1ccc(NC(=O)C[C@H](CCCO)c2noc([C@H]3C[C@@H](CC(C)(C)C)C3)c2C2CC2)c(Cl)c1` ; what EC50 value has been reported?
< 3 µM

Suppose we examine the compound `Cc1ccc(NC(=O)C[C@H](CCC(=O)O)c2noc([C@H]3C[C@@H](CCc4ccccc4)C3)c2C2CC2)c(Cl)c1` ; what EC50 value has been reported?
< 3 µM

Suppose we examine the compound Cc1ccc(NC(=O)CC(CN2C(=O)N(C)C(C)(C)C2=O)c2nnc(CCCC(C)(C)C)n2C2CC2)c(C)c1 (racemic) ; what EC50 value has been reported?
> 3 µM

Suppose we examine the compound CC(=O)OCCC1(c2onc(CCC(=O)Nc3ccc(C)cc3Cl)c2C2CC2)CC(CC(C)(C)C)C1 (mixture of isomers) ; what EC50 value has been reported?
> 3 µM

Suppose we examine the compound Cc1ccc(NC(=O)[C@H]2CC(O)(C(F)(F)F)C[C@@H]2c2nnc([C@H]3C[C@@H](CC(C)C)C3)n2C2CC2)c(C)c1 (mixture of isomers) ; what EC50 value has been reported?
< 3 µM

* * *

TGT: mouse RORγ (Mus musculus)
Construct: mouse, NM_011281.2 and from Ile251 to Lys516; expressed in transfected cells; host or cells: CHO cells (transient co-transfection with pG5-Luc reporter)
ASSAY EXPLANATION: Luciferase reporter gene assay of inhibitory effect against RORγ transcriptional activity (GAL4-mRORγ plasmid in CHO cells)
Format: cell-based
PROTOCOL CONDITIONS: read-out: LUC EC50 (μM) mRORg
Listing: EC50 of selected compounds

Suppose we examine the compound Cc1ccc(NC(=O)CCc2nnc(C3CC(COC(C)C)C3)n2C2CC2)c(C)c1 (single isomer, unassigned) [Example F-478] ; what EC50 value has been reported?
< 3 µM

Suppose we examine the compound `CC(=O)N[C@@H](CC(=O)Nc1ccc(C)cc1C)c1nnc(CCCC(C)C)n1C1CC1` ; what EC50 value has been reported?
< 3 µM

Suppose we examine the compound `Cc1c(Cl)cccc1NC(=O)CCc1nnc(CCC(=O)N(C)C)n1C1CC1` ; what EC50 value has been reported?
> 3 µM

Suppose we examine the compound `Cc1ccc(NC(=O)C[C@H](CCC(=O)O)c2noc(-c3cc(C4C(C)(C)C4(C)C)on3)c2C2CC2)c(Cl)c1` ; what EC50 value has been reported?
< 3 µM

* * *

TGT: human RORγ (Homo sapiens)
Construct: human, NM_005060.3 and from Ser253 to Lys518; expressed in transfected cells; host or cells: CHO cells (transient co-transfection with pG5-Luc reporter)
ASSAY EXPLANATION: Luciferase reporter gene assay of inhibitory effect against RORγ transcriptional activity (GAL4-hRORγ plasmid in CHO cells)
Assay type: cell-based
PROTOCOL CONDITIONS: read-out: LUC EC50 (μM) hRORg
Listing: EC50 of selected molecules

> print(dat)
                                   molecule  readout.label  measured.result
1  COC(=O)C(C)(C)CCc1nnc(CCC(=O)Nc2cccc(Cl)c2C)n1C1CC1           EC50           < 3 µM

Look up EC50 with human RORγ (Homo sapiens) for this molecule: Cc1ccc(NC(=O)CC(Cc2ncco2)c2nnc([C@H]3C[C@@H](CC(C)C)C3)n2C2CC2)c(C)c1 (mixture of isomers)
< 3 µM

* * *

TGT: human RORγ (Homo sapiens)
Construct: human, NM_005060.3 and from Ser253 to Lys518; expressed in transfected cells; host or cells: CHO cells (transient co-transfection with pG5-Luc reporter)
ASSAY EXPLANATION: Luciferase reporter gene assay of inhibitory effect against RORγ transcriptional activity (GAL4-hRORγ plasmid in CHO cells)
Type: cell-based
PROTOCOL CONDITIONS: read-out: LUC EC50 hRORg
Listing: EC50 of selected compounds

Some compounds with known EC50 results, for comparison:
> print(dat)
                            molecule.smiles  readout.label  measured.result
1  Cc1ccc(NC(=O)C[C@H](C[C@H](C)O)c2nnc([C@H]3C[C@@H](CC(C)C)C3)n2C2CC2)c(C)c1           EC50           < 3 µM
2  CC(C)Cc1cc(-c2nnc([C@H](CC(=O)Nc3cccc4c3OC(F)(F)O4)OC(C)C)n2C2CC2)no1           EC50           > 3 µM

Look up EC50 with human RORγ (Homo sapiens) for this compound: `Cc1ccc(NC(=O)C[C@H](CCC(=O)O)c2noc([C@H]3C[C@@H](CC(C)(C)CO)C3)c2C2CC2)c(Cl)c1`
< 3 µM

Look up EC50 with human RORγ (Homo sapiens) for this compound: `Cc1cc(F)ccc1NC(=O)C[C@H](CCO)c1nnc([C@H]2C[C@@H](CC(C)C)C2)n1C1CC1`
< 3 µM

Look up EC50 with human RORγ (Homo sapiens) for this compound: `Cc1ccc(NC(=O)CCc2noc(C(F)(F)c3cc(C(C)(C)C)on3)c2C2CC2)c(Cl)c1`
< 3 µM

Look up EC50 with human RORγ (Homo sapiens) for this compound: `Cc1cc(NC(=O)C[C@H](CC(=O)O)c2noc([C@H]3C[C@@H](CC(C)C)C3)c2C2CC2)n(C)n1`
> 3 µM
